Data origin: patent US6159994A

TESTED_ON: histamine H3 receptor (Cavia porcellus, UniProt Q9JI35)
Construct: the longitudinal muscle layer and adhering myenteric plexus was teased away; from tissue; host or cells: guinea pig ileum longitudinal muscle with adhering myenteric plexus (intact tissue strips)
Sequence (Q9JI35 whole entry): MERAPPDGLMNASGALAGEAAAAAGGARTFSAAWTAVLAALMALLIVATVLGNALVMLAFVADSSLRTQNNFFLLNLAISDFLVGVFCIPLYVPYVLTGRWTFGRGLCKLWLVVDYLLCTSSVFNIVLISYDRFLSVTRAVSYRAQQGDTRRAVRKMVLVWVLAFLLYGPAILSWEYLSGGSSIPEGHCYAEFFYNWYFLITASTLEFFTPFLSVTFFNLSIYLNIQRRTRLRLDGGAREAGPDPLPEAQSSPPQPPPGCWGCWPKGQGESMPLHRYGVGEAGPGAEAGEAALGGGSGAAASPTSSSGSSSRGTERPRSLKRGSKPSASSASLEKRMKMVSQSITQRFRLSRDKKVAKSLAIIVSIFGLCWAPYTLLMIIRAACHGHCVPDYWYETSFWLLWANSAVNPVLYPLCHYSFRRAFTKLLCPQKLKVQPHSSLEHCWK
ASSAY_REMARKS: Guinea pig ileal longitudinal muscle, myenteric plexus functional assay (antagonism of R-(α)-methylhistamine inhibition of electrically-stimulated contraction)
Type: cell-based
MEASUREMENT_CONTEXT: guinea pig ileum; antagonist affinity from rightward shift of R-(α)-methylhistamine E/[A] curves (Schild); typical variance ±0.15 log units; read-out: pKB (functional assay) - ileum (converted)
Each entry below carries its recorded Kb.

{"columns": ["MOLECULE", "Kb"],
 "data": [
  ["O=C1C(Cc2ccc(Cl)cc2)NS(=O)(=O)N1CCCCc1c[nH]cn1 (centres unmarked)", "0.0447 µM"]
]}

Prompt line: Look up histamine H3 receptor (Cavia porcellus, UniProt Q9JI35) data: Kb of O=S1(=O)N(CCCc2c[nH]cn2)CCN1Cc1ccccc1 , then report it.
Response line: > 10 µM

Prompt line: State Kb (histamine H3 receptor (Cavia porcellus, UniProt Q9JI35)) of O=S1(=O)NC(Cc2ccc(Cl)cc2)CN1CCCCCc1c[nH]cn1 (centres unmarked) .
Response line: 0.123 µM

Prompt line: Specify Kb for O=C1CNS(=O)(=O)N1CCCc1c[nH]cn1 , system histamine H3 receptor (Cavia porcellus, UniProt Q9JI35).
Response line: 1.78 µM
